Molecular target: Hippocampal Mineralocorticoid Receptors (Rattus norvegicus, UniProt P22199)
Construct: To isolate the mineralocorticoid receptor, brain cytosol fractions were prepared; from tissue; host or cells: rat brain (hippocampal) cytosol
Sequence (P22199 1-981): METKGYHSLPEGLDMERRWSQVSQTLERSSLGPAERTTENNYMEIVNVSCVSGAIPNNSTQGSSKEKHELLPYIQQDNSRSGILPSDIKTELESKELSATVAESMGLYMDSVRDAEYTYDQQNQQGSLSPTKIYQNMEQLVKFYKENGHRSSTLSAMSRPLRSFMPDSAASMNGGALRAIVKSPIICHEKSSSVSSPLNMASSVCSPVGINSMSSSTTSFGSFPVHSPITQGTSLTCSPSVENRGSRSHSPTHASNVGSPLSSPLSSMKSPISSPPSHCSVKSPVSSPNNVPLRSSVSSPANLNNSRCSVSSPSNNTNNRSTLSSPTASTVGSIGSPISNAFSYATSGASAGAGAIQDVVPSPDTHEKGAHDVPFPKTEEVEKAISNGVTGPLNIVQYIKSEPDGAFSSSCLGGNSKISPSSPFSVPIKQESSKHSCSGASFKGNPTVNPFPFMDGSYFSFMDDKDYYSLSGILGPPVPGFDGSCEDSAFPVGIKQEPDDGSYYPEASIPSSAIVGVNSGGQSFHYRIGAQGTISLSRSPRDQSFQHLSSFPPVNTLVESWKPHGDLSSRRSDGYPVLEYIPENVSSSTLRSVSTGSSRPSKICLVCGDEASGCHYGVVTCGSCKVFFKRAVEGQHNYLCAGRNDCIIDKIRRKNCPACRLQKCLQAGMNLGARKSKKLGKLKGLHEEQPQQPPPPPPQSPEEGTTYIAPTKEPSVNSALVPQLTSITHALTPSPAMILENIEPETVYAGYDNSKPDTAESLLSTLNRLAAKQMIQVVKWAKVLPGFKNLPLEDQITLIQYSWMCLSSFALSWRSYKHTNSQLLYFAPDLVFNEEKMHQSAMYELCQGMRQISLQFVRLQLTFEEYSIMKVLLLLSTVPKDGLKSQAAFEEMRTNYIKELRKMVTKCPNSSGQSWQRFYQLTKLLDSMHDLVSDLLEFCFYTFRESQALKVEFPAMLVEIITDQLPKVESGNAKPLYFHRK
Experiment: Inhibition of 3H-aldosterone binding, brain cytosol
Parameters: species or system rats
Settings: competitor 10^-6M; 3 nM 3H-aldosterone, RU28362 0.5 µM
Measured inhibition at 1 µM by item
measuredAttribute: inhibition at 1 µM (%)

>  <molecule>
C[C@]12CC[C@@H](O)C[C@@H]1CC[C@@H]1[C@@H]2CC[C@]2(C)[C@@H](C(=O)CO)CC[C@@H]12 [3α,21-dihydroxy-5α-pregnan-20-one]

>  <measuredAttribute>
inhibition at 1 µM

>  <observedResult>
76.7

$$$$
>  <molecule>
C[C@H](O)[C@H]1CC[C@H]2[C@@H]3CC[C@@H]4C[C@H](O)CC[C@]4(C)[C@H]3CC[C@]12C

>  <measuredAttribute>
inhibition at 1 µM

>  <observedResult>
0

$$$$
>  <molecule>
CC(=O)[C@H]1CC[C@H]2[C@@H]3CC[C@H]4C[C@](C)(O)CC[C@]4(C)[C@H]3CC[C@]12C [3α-hydroxy-3β-methyl-5α-pregnan-20-one]

>  <measuredAttribute>
inhibition at 1 µM

>  <observedResult>
3.2

$$$$
>  <molecule>
C[C@H](O)[C@H]1CC[C@H]2[C@@H]3CC[C@H]4C[C@H](O)CC[C@]4(C)[C@H]3CC[C@]12C [5α-pregnan-3α,20α-diol, reference compound]

>  <measuredAttribute>
inhibition at 1 µM

>  <observedResult>
0

$$$$
>  <molecule>
CC(C)(O)[C@H]1CC[C@H]2[C@@H]3CC[C@H]4C[C@H](O)CC[C@]4(C)[C@H]3CC[C@]12C

>  <measuredAttribute>
inhibition at 1 µM

>  <observedResult>
0

$$$$
>  <molecule>
C[C@]12CCC(=O)C=C1CC[C@@H]1[C@@H]2[C@@H](O)C[C@]2(C=O)[C@@H](C(=O)CO)CC[C@@H]12

>  <measuredAttribute>
inhibition at 1 µM

>  <observedResult>
95.5

$$$$
>  <molecule>
C[C@]12CC[C@@H](O)C[C@H]1CC[C@@H]1[C@@H]2CC[C@]2(C)[C@@H](C(=O)CO)CC[C@@H]12

>  <measuredAttribute>
inhibition at 1 µM

>  <observedResult>
13.8

$$$$

====

System: GR complex
Experiment: [35S]TBPS binding assay (inhibition of [35S]TBPS binding, cerebral cortex P2 homogenate)
Parameters: species or system rat
Details: maximum inhibition of [35S]TBPS binding
measuredAttribute: IMAX (%)

>  <compound>
CC(=O)c1cccc(C#C[C@@]2(O)CC[C@@]3(C)[C@H](CC[C@@H]4[C@@H]3CC[C@]3(C)[C@@H](C(C)=O)CC[C@@H]43)C2)c1

>  <measuredAttribute>
IMAX

>  <observedResult>
100

$$$$
>  <compound>
CC(=O)[C@H]1CC[C@H]2[C@@H]3CC[C@@H]4C[C@@](O)(C#Cc5ccc(C(F)(F)F)cc5)CC[C@]4(C)[C@H]3CC[C@]12C

>  <measuredAttribute>
IMAX

>  <observedResult>
87

$$$$
>  <compound>
CC(=O)[C@H]1CC[C@H]2[C@@H]3CC[C@H]4C[C@@H](O)CC[C@]4(C)[C@H]3CC[C@]12C [3β-Hydroxy-5α-pregnan-20-one, reference compound]

>  <measuredAttribute>
IMAX

>  <observedResult>
33

$$$$
>  <compound>
CC(=O)[C@H]1CC[C@H]2[C@@H]3CC[C@@H]4C[C@@](O)(C#CCCCCO)CC[C@]4(C)[C@H]3CC[C@]12C

>  <measuredAttribute>
IMAX

>  <observedResult>
99

$$$$
>  <compound>
CC(=O)c1ccc(C#CC2(O)CCC3C(CCC4C3CCC3(C)C(C(C)=O)CCC43)C2)cc1 (stereo not drawn) [3β-(4'-Acetylphenyl)ethynyl-3α-hydroxy-5β-19-norpregnan-20-o]

>  <measuredAttribute>
IMAX

>  <observedResult>
90

$$$$
>  <compound>
CC(=O)OCCCC#C[C@@]1(O)CC[C@@]2(C)[C@H](CC[C@@H]3[C@@H]2CC[C@]2(C)[C@@H](C(C)=O)CC[C@@H]32)C1

>  <measuredAttribute>
IMAX

>  <observedResult>
98

$$$$
>  <compound>
CC(=O)[C@H]1CC[C@H]2[C@@H]3CC[C@@H]4C[C@@](O)(C#CCCO)CC[C@]4(C)[C@H]3CC[C@]12C

>  <measuredAttribute>
IMAX

>  <observedResult>
103

$$$$
>  <compound>
CC(=O)[C@H]1CC[C@H]2[C@@H]3CC[C@@H]4C[C@@](O)(c5ccccc5)CC[C@]4(C)[C@H]3CC[C@]12C [3α-Hydroxy-3β-phenyl-5β-pregnan-20-one, 3α-hydroxy-3β-phenyl-5β-pregnan-20-one]

>  <measuredAttribute>
IMAX

>  <observedResult>
86

$$$$
>  <compound>
CCOC(=O)c1ccc(C#C[C@@]2(O)CC[C@@]3(C)[C@H](CC[C@@H]4[C@@H]3CC[C@]3(C)[C@@H](C(C)=O)CC[C@@H]43)C2)cc1

>  <measuredAttribute>
IMAX

>  <observedResult>
98

$$$$
>  <compound>
CC(=O)[C@H]1CC[C@H]2[C@@H]3CC[C@@H]4C[C@@](O)(C#Cc5cccc(O)c5)CC[C@]4(C)[C@H]3CC[C@]12C

>  <measuredAttribute>
IMAX

>  <observedResult>
99

$$$$
>  <compound>
CC(=O)[C@H]1CC[C@H]2[C@@H]3CC[C@@H]4C[C@@](O)(C#Cc5ccccc5)CC[C@]4(C)[C@H]3CC[C@]12C

>  <measuredAttribute>
IMAX

>  <observedResult>
101

$$$$
>  <compound>
C[C@]12CC[C@](O)(C#CCCO)C[C@H]1CC[C@@H]1[C@@H]2CC[C@]2(C)[C@@H](C(=O)Cn3ccnc3)CC[C@@H]12

>  <measuredAttribute>
IMAX

>  <observedResult>
93

$$$$

====

System: GR complex
Test: [35S]TBPS binding assay (inhibition of [35S]TBPS binding, cerebral cortex P2 homogenate)
Set-up: species or system rat
Settings: maximum inhibition of [35S]TBPS binding

>  <compound>
C[C@]12CC[C@@H](O)C[C@H]1CC[C@@H]1[C@@H]2CC[C@]2(C)[C@@H](C(=O)Cn3cnc([N+](=O)[O-])c3)CC[C@@H]12

>  <outputUnit>
%

>  <IMAX>
71

$$$$
>  <compound>
C[C@]12CC[C@H]3[C@@H](CC[C@@H]4C[C@@](O)(C#CCCO)CC[C@@H]43)[C@@H]1CC[C@@H]2C(=O)Cn1ccnn1

>  <outputUnit>
%

>  <IMAX>
95

$$$$
>  <compound>
CC(C)CCC[C@@H](C)[C@H]1CC[C@H]2[C@@H]3CC=C4C[C@@H](O)CC[C@]4(C)[C@H]3CC[C@]12C [Cholesterol, reference compound]

>  <outputUnit>
%

>  <IMAX>
0

$$$$
>  <compound>
CC(=O)[C@H]1CC[C@H]2[C@@H]3CC[C@@H]4C[C@@](O)(C#CCn5ccnc5)CC[C@]4(C)[C@H]3CC[C@]12C

>  <outputUnit>
%

>  <IMAX>
107

$$$$
>  <compound>
CC(=O)C1CCC2C3CCC4CC(O)(C#Cc5ccc(O)cc5)CCC4(C)C3CCC12C (centres unmarked)

>  <outputUnit>
%

>  <IMAX>
88

$$$$
>  <compound>
CC(=O)[C@H]1CC[C@H]2[C@@H]3CC[C@@H]4C[C@@](O)(C#Cc5ccccn5)CC[C@]4(C)[C@H]3CC[C@]12C

>  <outputUnit>
%

>  <IMAX>
98

$$$$
>  <compound>
C[C@]12C[C@H](O)[C@H]3[C@@H](CCC4=CC(=O)CC[C@@]43C)[C@@H]1CC[C@@H]2C(=O)CO [4-Pregnen-11β,21-diol-3,20-dione, reference compound]

>  <outputUnit>
%

>  <IMAX>
30

$$$$
>  <compound>
CC(=O)[C@H]1CC[C@H]2[C@@H]3CC[C@@H]4C[C@@](O)(C#CCCCC(N)=O)CC[C@]4(C)[C@H]3CC[C@]12C

>  <outputUnit>
%

>  <IMAX>
102

$$$$
>  <compound>
C[C@]12CC[C@H]3[C@@H](CC[C@@H]4C[C@@](O)(C#CCCO)CC[C@@H]43)[C@@H]1CC[C@@H]2C(=O)Cn1ccnc1

>  <outputUnit>
%

>  <IMAX>
98

$$$$
>  <compound>
CC1(O)CCC2(C)C(CCC3C2CCC2(C)C(C(=O)Cn4nccn4)CCC32)C1 (centres unmarked)

>  <outputUnit>
%

>  <IMAX>
99

$$$$
>  <compound>
C[C@]12CC[C@@H](O)C[C@H]1CC[C@@H]1[C@@H]2CC[C@]2(C)[C@@H](C(=O)CSS(=O)(=O)[O-])CC[C@@H]12.[Na+]

>  <outputUnit>
%

>  <IMAX>
88

$$$$
>  <compound>
CC(=O)C1CCC2C3CCC4CC(O)(C#CCCO)CCC4(C)C3CCC12C (centres unmarked)

>  <outputUnit>
%

>  <IMAX>
95

$$$$
>  <compound>
C[C@]12CC[C@@H](O)C[C@H]1CC[C@@H]1[C@@H]2CC[C@]2(C)[C@@H](C(=O)Cn3cnc4ncncc43)CC[C@@H]12

>  <outputUnit>
%

>  <IMAX>
71

$$$$
>  <compound>
C[C@]12CC[C@@H](O)C[C@H]1CC[C@@H]1[C@@H]2CC[C@]2(C)[C@@H](C(=O)Cn3cnnn3)CC[C@@H]12

>  <outputUnit>
%

>  <IMAX>
60

$$$$

Values compiled from patent EP1038880B1.
